Assign IC50 to each entry below.
Target: CDK7/CycH/MNAT1 (Homo sapiens (Human), UniProt P50613)
Sequence (P50613 whole entry): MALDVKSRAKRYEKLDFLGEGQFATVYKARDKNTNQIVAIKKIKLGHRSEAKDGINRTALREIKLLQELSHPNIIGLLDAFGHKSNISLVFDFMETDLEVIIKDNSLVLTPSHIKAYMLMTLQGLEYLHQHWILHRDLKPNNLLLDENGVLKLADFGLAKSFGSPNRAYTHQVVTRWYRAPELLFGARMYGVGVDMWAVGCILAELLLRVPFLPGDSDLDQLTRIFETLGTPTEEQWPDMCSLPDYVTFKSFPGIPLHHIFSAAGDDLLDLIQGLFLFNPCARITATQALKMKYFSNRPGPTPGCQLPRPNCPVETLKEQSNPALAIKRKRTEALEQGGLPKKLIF
Sequence (P51946 whole entry partner): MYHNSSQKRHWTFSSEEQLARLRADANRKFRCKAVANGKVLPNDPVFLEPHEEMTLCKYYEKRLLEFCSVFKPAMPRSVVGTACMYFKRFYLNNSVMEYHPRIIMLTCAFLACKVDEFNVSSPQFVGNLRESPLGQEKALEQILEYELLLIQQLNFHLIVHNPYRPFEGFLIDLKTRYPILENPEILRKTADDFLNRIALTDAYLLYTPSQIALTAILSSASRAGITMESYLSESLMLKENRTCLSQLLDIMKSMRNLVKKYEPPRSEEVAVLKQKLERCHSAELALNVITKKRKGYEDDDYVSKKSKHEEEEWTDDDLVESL
Sequence (P51948 whole entry partner): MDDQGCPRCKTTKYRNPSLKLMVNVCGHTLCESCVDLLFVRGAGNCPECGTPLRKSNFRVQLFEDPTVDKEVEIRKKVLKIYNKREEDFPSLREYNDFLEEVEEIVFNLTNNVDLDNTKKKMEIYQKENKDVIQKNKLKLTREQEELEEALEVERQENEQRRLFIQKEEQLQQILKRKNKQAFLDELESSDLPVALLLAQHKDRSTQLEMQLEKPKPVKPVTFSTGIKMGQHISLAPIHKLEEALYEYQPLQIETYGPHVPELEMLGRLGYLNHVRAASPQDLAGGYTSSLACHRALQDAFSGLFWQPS
Assay: Biochemical Assay for CDK7 (TR-FRET kinase assay)
Details: 60 min pre-incubation with kinase; 1 mM ATP

[[record]]
compound = "CC(C)C(C(=O)Nc1cc(C2CC2)[nH]n1)c1cccc(-c2ccc(NC(=O)/C=C/CN3CCOCC3)nc2)c1 (stereo not drawn)"
result = "< 25 nM"

[[record]]
compound = "CC(C(=O)Nc1cc(C2CC2)[nH]n1)c1cccc(-c2ccc(NC(=O)/C=C/CN3CCCCC3)cn2)c1 (stereo not drawn)"
result = "> 100 nM"

[[record]]
compound = "CC(C)C(C(=O)Nc1cc(C2CC2)[nH]n1)c1cccc(-c2ccc(NC(=O)/C=C/CN(C)C)nc2)c1 (stereo not drawn)"
result = "< 25 nM"

[[record]]
compound = "CC(C(=O)Nc1cc(C2CC2)[nH]n1)c1cccc(-c2cnc(NC(=O)/C=C/CN3CCOCC3)c(F)c2)c1 (stereo not drawn)"
result = "25 to 100 nM"

[[record]]
compound = "CC(C(=O)Nc1cc(C2CCCC2)[nH]n1)c1cccc(-c2ccc(NC(=O)/C=C/CN(C)C)c(F)c2)c1 (stereo not drawn)"
result = "25 to 100 nM"


With those in mind, consider the next compound.
Task: // Input: C=CC(=O)Nc1ccc(-c2cccc(C(C)C(=O)Nc3cc(C4CC4)[nH]n3)c2)cn1 (single isomer, unassigned) [Compound 22] . Output its IC50 only.
Output: < 25 nM
